test system: HeLa; test: Primary qHTS to identify gynecologic anti-cancer compounds using libraries of approved drugs and bioactive compounds (AID 1345084); conditions: Gynecologic cancer cell panel viability, ATPlite luminescence, 48 h; series mostly up to 57.5 µM; note: nearly all actives have a fitted effect of over 55% in size
Inconclusive results are not listed. Activity calls are given as the source filed them. Calls come from the whole dose curve; as a rule, active = well fitted cell-killing curve with a large enough effect; inconclusive = small, poorly fitted or top-dose-only effect, or effect the other way; inactive = flat fitted curve, though single readings scatter.
Output constraint: value belongs to Y = active, N = inactive

COMPOUND	ASSIGNED_CLASS
C=C[C@H](/C=C\c1ccc(O)cc1)c1ccc(O)cc1	N
CC(=O)OC(C)(C)/C=C/C(=O)[C@](C)(O)[C@H]1C(O)C[C@@]2(C)[C@@H]3CC=C4[C@@H](C=C(O[C@@H]5O[C@H](CO)[C@@H](O)[C@H](O)[C@H]5O)C(=O)C4(C)C)[C@]3(C)C(=O)C[C@]12C (some centres undefined)	N
Cn1nc(-c2ccc(C(F)(F)F)cc2)nc2c(=O)n(C)c(=O)nc1-2	Y

**Query** So what was the verdict on C#CCCCn1cc(-c2cccc3c2N[C@H](C)CC(=O)N3)cn1 in this test?
**Result** Y

**Query** Answer briefly: the call reported for CC(C)(C)c1ccc2c(c1)CC[C@H]2NC(=O)Nc1cccc2[nH]ncc12 in this assay.
**Result** N

**Query** Dear all, I need the recorded test outcome for COC(=O)c1ccc2c(c1)[nH]c1ncnc(NCCCN3CCCCC3)c12 , thank you.
**Result** N

**Query** What did this assay record as the result for CC(=O)C1(C)CCC2C3C=C(C)C4=CC(=O)CCC4(C)C3CCC21C (centres undefined) ?
**Result** Y

**Query** Record lookup: outcome of this test for C[C@@H](c1ccc2nccn2c1)n1nnc2ncc(-c3cnn(C)c3)nc21 ?
**Result** N
